Every entry's value here was drawn from PubChem BioAssay AID2315.

Test protocol: A qHTS for Small Molecule Inhibitors of Shiga Toxin; note: 0% is about no effect
Study conditions: Vero cells, Shiga toxin protein synthesis inhibition reporter; at 38.7 µM, active compounds read high
About 27,000 (9.3%) of roughly 290,000 compounds were called active. Shown is part of a subset that was picked to be rich in actives.
Endpoint name: inhibition (%)
Unit % implied. Number only.

Check out these entries, answers already filled in.
INSERT INTO measurements (compound, endpoint_value) VALUES
  ('COc1ccc(N(CC(=O)Nc2ccc(F)c(F)c2)S(=O)(=O)c2c(C)[nH]c(=O)[nH]c2=O)cc1', -5.76),
  ('Cc1cc(-c2ccc(C)c(S(=O)(=O)NC(C)Cc3ccco3)c2)on1 (stereo not drawn)', -1.68),
  ('CSc1nsc(SCC(=O)Nc2cc(C(=O)O)ccc2C)n1', -7.57);

Exercise: What does the record list as inhibition for CC(/C=N/NC(=O)c1ccncc1)=C\c1ccco1 ?
Solution: 27

Exercise: What does the record list as inhibition for CN1CCN(c2ccc([N+](=O)[O-])c(Sc3nc4ccccc4[nH]3)c2)CC1 ?
Solution: -2.62

Exercise: What does the record list as inhibition for COc1ccc(/C=C2\SC(=N)N(c3ccc(F)cc3)C2=O)cc1 ?
Solution: -5.41

Exercise: What does the record list as inhibition for COc1ccc(NC(=O)CSc2nc(SC)ns2)c(OC)c1 ?
Solution: 69.7

Exercise: What does the record list as inhibition for COc1cccc(NC(=O)Nc2nnc(N3CCCCC3C)s2)c1 (stereo not drawn) ?
Solution: 53.2

Exercise: What does the record list as inhibition for CCN(CC)c1ccc(/C=N/NC(=O)CNC(=O)c2cccs2)cc1 ?
Solution: 42.1

Exercise: What does the record list as inhibition for COC(=O)c1cccc(C(=O)N2CCC(CCC(=O)NCc3ccc(F)cc3)CC2)c1 ?
Solution: -4.62

Exercise: What does the record list as inhibition for Cc1ccc(S(=O)(=O)N[C@@H](Cc2ccccc2)C(=O)N2CCC(C(=O)N[C@H](C(=O)O)C(C)O)CC2)cc1 (stereo partly drawn) ?
Solution: -8.35

Exercise: What does the record list as inhibition for Cc1nn(-c2ccccc2)c(NC(=O)c2cccs2)c(-c2ccc(Cl)cc2)c1=O ?
Solution: 7.45

Exercise: What does the record list as inhibition for COc1ccc(/C=C2\SC(=S)N(CC(=O)NNC(=O)c3ccncc3)C2=O)cc1 ?
Solution: 30.3
